All figures here come from patent EP4725969A1.

We begin with a simple list: items and their reported pKd.
# TARGET OR SYSTEM: T1, recombinant human HER2 extracellular domain protein (human, UniProt P04626 23-652)
# T1 construct: range 23-652; Range is printed for the immunogen/panning protein; also called ErbB2; recombinant HER2 protein
# ASSAY PROTOCOL: BLI, Protein A capture
Give only the number. pKd is defined as minus log10 of concentration in molar units.

Some binders with recorded pKd:
BINDER	REPORTED MEASUREMENT
Hu2117HK-Mu42 (Fc fusion, scFv-hIgG1 Fc; not shown: human IgG1 Fc) scFv: EVQLVESGGGLVQPGGSLRLSCAASGFTYSSYGMSWVRQAPGKGLEWVASISGSGSYTKYPDSVKGRFTISRDNSKNTLYLQMNSLRAEDTAVYYCARDYAGFFDVWGQGTLVTVSSGGGGSGGGGSGGGGSDIQMTQSPSSLSASVGDRVTITCRSSQSLVHSNGNTYLHWYQQKPGKAPKLLIYKVSNRFSGVPSRFSGSGSGTDFTLTISSLQPEDFATYFCSQSTHVPYTFGQGTKVEIK	7.47
Hu2117HK-Mu16 (Fc fusion, name in Kabat numbering, scFv-hIgG1 Fc; not shown: human IgG1 Fc) scFv: EVQLVESGGGLVQPGGSLRLSCAASGFTYSSYGMSWVRQAPGKGLEWVASISGGGSYTKYPDSVKGRFTISRDNSKNTLYLQMNSLRAEDTAVYYCARDYAGFFDVWGQGTLVTVSSGGGGSGGGGSGGGGSDIQMTQSPSSLSASVGDRVTITCRSSQSLVHSGGNTYLHWYQQKPGKAPKLLIYKVSNRFSGVPSRFSGSGSGTDFTLTISSLQPEDFATYFCSQSTHVPYTFGQGTKVEIK	8.06
Hu2117HK-Mu22 (Fc fusion, name in Kabat numbering, scFv-hIgG1 Fc; not shown: human IgG1 Fc) scFv: EVQLVESGGGLVQPGGSLRLSCAASGFTYSSYGMSWVRQAPGKGLEWVASISGGGSYTKYPDSVKGRFTISRDNSKNTLYLQMNSLRAEDTAVYYCARDYAGFFDVWGQGTLVTVSSGGGGSGGGGSGGGGSDIQMTQSPSSLSASVGDRVTITCRSSQSLVHSVGNTYLHWYQQKPGKAPKLLIYKVSNRFSGVPSRFSGSGSGTDFTLTISSLQPEDFATYFCSQSTHVPYTFGQGTKVEIK	7.87
Hu2117HK-Mu40 (Fc fusion, scFv-hIgG1 Fc; not shown: human IgG1 Fc) scFv: EVQLVESGGGLVQPGGSLRLSCAASGFTYSDYGMSWVRQAPGKGLEWVASISGGGSYTKYPDSVKGRFTISRDNSKNTLYLQMNSLRAEDTAVYYCARDYAGFFDVWGQGTLVTVSSGGGGSGGGGSGGGGSDIQMTQSPSSLSASVGDRVTITCRSSQSLVHSNGNTYLHWYQQKPGKAPKLLIYKVSNRFSGVPSRFSGSGSGTDFTLTISSLQPEDFATYFCSQSTHVPYTFGQGTKVEIK	7.92
Hu2117HK-Mu25 (Fc fusion, scFv-hIgG1 Fc; not shown: human IgG1 Fc) scFv: EVQLVESGGGLVQPGGSLRLSCAASGFTYSSYGMSWVRQAPGKGLEWVASISGGGSYTKYPDSVKGRFTISRDNSKNTLYLQMNSLRAEDTAVYYCARDYAGFFDVWGQGTLVTVSSGGGGSGGGGSGGGGSDIQMTQSPSSLSASVGDRVTITCRSSQSLVHSNSNTYLHWYQQKPGKAPKLLIYKVSNRFSGVPSRFSGSGSGTDFTLTISSLQPEDFATYFCSQSTHVPYTFGQGTKVEIK	8.17

Give the measured pKd of Hu2117HK-Mu21 (Fc fusion, name in Kabat numbering, scFv-hIgG1 Fc; not shown: human IgG1 Fc) scFv: EVQLVESGGGLVQPGGSLRLSCAASGFTYSSYGMSWVRQAPGKGLEWVASISGGGSYTKYPDSVKGRFTISRDNSKNTLYLQMNSLRAEDTAVYYCARDYAGFFDVWGQGTLVTVSSGGGGSGGGGSGGGGSDIQMTQSPSSLSASVGDRVTITCRSSQSLVHSTGNTYLHWYQQKPGKAPKLLIYKVSNRFSGVPSRFSGSGSGTDFTLTISSLQPEDFATYFCSQSTHVPYTFGQGTKVEIK .
7.92

Param item = Hu2117HK-Mu17 (Fc fusion, name in Kabat numbering, scFv-hIgG1 Fc; not shown: human IgG1 Fc) scFv: EVQLVESGGGLVQPGGSLRLSCAASGFTYSSYGMSWVRQAPGKGLEWVASISGGGSYTKYPDSVKGRFTISRDNSKNTLYLQMNSLRAEDTAVYYCARDYAGFFDVWGQGTLVTVSSGGGGSGGGGSGGGGSDIQMTQSPSSLSASVGDRVTITCRSSQSLVHSIGNTYLHWYQQKPGKAPKLLIYKVSNRFSGVPSRFSGSGSGTDFTLTISSLQPEDFATYFCSQSTHVPYTFGQGTKVEIK ; retrieve measured pKd.
7.83

# get_value(readout='pKd', item= Hu2117HK-Mu34 (Fc fusion, scFv-hIgG1 Fc; not shown: human IgG1 Fc) scFv: EVQLVESGGGLVQPGGSLRLSCAASGFTYSSYGMSWVRQAPGKGLEWVASISGGGSYTKYPDSVKGRFTISRDNSKNTLYLQMNSLRAEDTAVYYCARDYAGFFDVWGQGTLVTVSSGGGGSGGGGSGGGGSDIQMTQSPSSLSASVGDRVTITCRSSQSLVHSNGNTYLHWYQQKPGKAPKLLIYKVSNRFSGVPSRFSGSGSGTDFTLTISSLQPEDFATYFCQQSTHVPYTFGQGTKVEIK )
7.90

Record request: pKd value, item Hu2117HK-Mu41 (Fc fusion, scFv-hIgG1 Fc; not shown: human IgG1 Fc) scFv: EVQLVESGGGLVQPGGSLRLSCAASGFTYSSYGMSWVRQAPGKGLEWVASISGGGNYAKYPDSVKGRFTISRDNSKNTLYLQMNSLRAEDTAVYYCARDYAGFFDVWGQGTLVTVSSGGGGSGGGGSGGGGSDIQMTQSPSSLSASVGDRVTITCRSSQSLVHSNGNTYLHWYQQKPGKAPKLLIYKVSNRFSGVPSRFSGSGSGTDFTLTISSLQPEDFATYFCSQSTHVPYTFGQGTKVEIK
8.02

Returns the measured pKd for the input binder. Input: Hu2117HK-Mu20 (Fc fusion, name in Kabat numbering, scFv-hIgG1 Fc; not shown: human IgG1 Fc) scFv: EVQLVESGGGLVQPGGSLRLSCAASGFTYSSYGMSWVRQAPGKGLEWVASISGGGSYTKYPDSVKGRFTISRDNSKNTLYLQMNSLRAEDTAVYYCARDYAGFFDVWGQGTLVTVSSGGGGSGGGGSGGGGSDIQMTQSPSSLSASVGDRVTITCRSSQSLVHSSGNTYLHWYQQKPGKAPKLLIYKVSNRFSGVPSRFSGSGSGTDFTLTISSLQPEDFATYFCSQSTHVPYTFGQGTKVEIK
7.88
